Target: T1, human CDH6 on cells (human, UniProt P55285 54-790)
T1 sequence: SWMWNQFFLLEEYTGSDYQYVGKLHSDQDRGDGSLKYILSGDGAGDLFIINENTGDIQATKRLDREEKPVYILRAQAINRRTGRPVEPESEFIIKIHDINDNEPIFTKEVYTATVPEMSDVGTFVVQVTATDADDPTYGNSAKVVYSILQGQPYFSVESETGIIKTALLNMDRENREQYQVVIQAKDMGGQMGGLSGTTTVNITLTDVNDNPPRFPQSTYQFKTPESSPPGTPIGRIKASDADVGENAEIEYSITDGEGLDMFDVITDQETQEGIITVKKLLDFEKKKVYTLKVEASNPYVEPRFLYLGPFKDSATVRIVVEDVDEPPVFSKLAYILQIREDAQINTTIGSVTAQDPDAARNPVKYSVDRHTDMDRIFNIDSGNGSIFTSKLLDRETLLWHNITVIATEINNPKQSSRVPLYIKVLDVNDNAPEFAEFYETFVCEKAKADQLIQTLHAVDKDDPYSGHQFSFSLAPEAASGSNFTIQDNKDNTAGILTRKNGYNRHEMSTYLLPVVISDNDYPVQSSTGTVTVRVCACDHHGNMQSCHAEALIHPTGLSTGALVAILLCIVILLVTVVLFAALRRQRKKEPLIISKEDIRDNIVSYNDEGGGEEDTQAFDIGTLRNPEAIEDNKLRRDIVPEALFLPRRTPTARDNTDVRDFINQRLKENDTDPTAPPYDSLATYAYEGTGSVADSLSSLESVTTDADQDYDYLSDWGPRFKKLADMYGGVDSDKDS
Assay: cell-based or functional assay
measured-quantity: percent inhibition at 1.22 nM ADC, KNS42 cells (%)

binder: NOV0695-SMCC-DM1 (antibody, human IgG1, kappa, V domains shown, SMCC-DM1 on primary amines, sites not stated) VH: QVQLQQSGPGLVKPSQTLSLTCAISGDSVSSNSAAWNWIRQSPSRGLEWLGRIYYRSKWYNDYAVSVKSRITINPDTSKNQFSLQLNSVTPEDTAVYYCARERSYRDYFDYWGQGTLVTVSS VL: DIQMTQSPSSLSASVGDRVTITCRASQGIFTYLNWYQQKPGKAPKLLISAASTLQSGVPSRFSGSGSGTDFTLTISSLQPEDFATYYCQQYYSTSLTFGQGTKVEIKR
recorded-result: 66.3
--
binder: NOV0719-SMCC-DM1 (antibody, human IgG1, kappa, V domains shown, SMCC-DM1 on primary amines, sites not stated) VH: QVQLLESGGGLVQPGGSLRLSCAASGFTFSSHWVHWVRQAPGKGLEWVSVISYMGSSTYYADSVKGRFTISRDNSKNTLYLQMNSLRAEDTAVYYCARGSYDMAFDVWGQGTLVTVSS VL: DIQMTQSPSSLSASVGDRVTITCRASQSIVSYLNWYQQKPGKAPKLLIYDASSLQSGVPSRFSGSGSGTDFTLTISSLQPEDFATYYCQQSGSHSITFGQGTKVEIKR
recorded-result: 41
--
binder: NOV0690-SMCC-DM1 (antibody, human IgG1, lambda, V domains shown, SMCC-DM1 on primary amines, sites not stated) VH: QVQLLESGGGLVQPGGSLRLSCAASGFTFSDHAIDWVRQAPGKGLEWVSVIAGDGSITYYADSVKGRFTISRDNSKNTLYLQMNSLRAEDTAVYYCARDTGVYREYMDVWGQGTLVTVSS VL: DIELTQPPSVSVSPGQTASITCSGDAIGTKFAHWYQQKPGQAPVLVIYYDHERPSGIPERFSGSNSGNTATLTISGTQAEDEADYYCYSRASSNLVFGGGTKLTVLG
recorded-result: 56.8

Provenance of the data: patent US20170224836A1
